compounds and their reported pIC50
System: Leishmania infantum
Test: MMV: Inhibition of Leishmania infantum (MHOM/MA/BE/67) in vitro.
Type: functional, organism-based
# pIC50 is unitless: minus log10 of the molar concentration; print number only

>>> meas_value("CCOC(=O)c1ccc2nc(-c3ccccc3)cc(O)c2c1")
4.79
>>> meas_value("CCOc1cccc2sc(N(Cc3cccnc3)C(=O)C3CCCCC3)nc12")
4.72
>>> meas_value("COc1ccc(C2C(C(=O)Nc3cccc(OC)c3)c3ccccc3C(=O)N2C2CCCCC2)cc1 (centres undefined)")
5.20
>>> meas_value("O=C(Nc1ccc(Br)cc1)Nc1cccc(Cl)c1")
4.99
>>> meas_value("OC1=C2C(=Nc3ccccc3SC2c2ccc(Br)cc2)c2ccccc21 (centres undefined)")
5.36

Exam item: Please give the measured pIC50 for this compound: O=C(NC(c1ccccc1)c1ccc2cccnc2c1O)c1ccccc1 (centres undefined)
Marked response: 4.78

Exam item: Another compound to check: CCCCNCC(O)(c1ccc(Cl)cc1)c1ccc(Cl)cc1
Marked response: 4.87

Exam item: Next compound: N=c1n(CCN2CCCCC2)c2ccccc2n1CC(=O)c1ccc(Cl)c(Cl)c1
Marked response: 5.39

Exam item: Now consider Oc1ccccc1CN1CCC2(CCCN(Cc3ccccc3F)C2)C1 (centres undefined) and answer again.
Marked response: 4.80

---

System: Leishmania infantum
Test: MMV: Inhibition of Leishmania infantum (MHOM/MA/BE/67) in vitro.
Assay type: functional, organism-based
Each record here notes measured IC50.

Example results:
>>> meas_value("COc1ccc(-c2c(C)nn3c(N)c(C#N)cnc23)cc1OC")
"> 32 µM"
>>> meas_value("COc1ccc(N2CCN(C(CNC(=O)C3CCCCC3)c3ccc4c(c3)OCO4)CC2)cc1 (stereo unspecified)")
"> 32 µM"
>>> meas_value("COc1ccc(CN2CCCC(C(=O)c3ccc(C(F)(F)F)cc3)C2)c(O)c1 (stereo unspecified)")
"> 32 µM"
>>> meas_value("O=C1c2ccccc2-c2nnc(-c3ccc(Br)cc3)cc21")
"> 32 µM"
>>> meas_value("CC(C)(C)c1ccc(C(=O)Nc2nc3ccccc3s2)cc1")
"> 32 µM"

Exam item: Given C=C(C)CCC(C)N1CCC(N2CCC(C(=O)NCCc3ccccc3)CC2)CC1 (stereo unspecified) , state its recorded IC50.
Marked response: > 32 µM

Exam item: Could you do the same for COc1ccc(NC(=O)C2c3ccccc3C(=O)N(CC(C)C)C2c2cccs2)cc1Cl (stereo unspecified) , please?
Marked response: > 32 µM

Exam item: // query: Cc1ccc2cc3c(N)c4c(C)ccc(C)c4nc3nc2c1
Marked response: 4.32 µM

Exam item: Next: Brc1ccc(Nc2nc3ccccc3nc2Nc2ccc(Br)cc2)cc1
Marked response: 4.06 µM

Exam item: Now this one: Cc1cc(=O)oc2c1ccc1oc(C(=O)c3ccccc3)c(C)c12
Marked response: > 32 µM

---

Test: MMV: Cytotoxicity against human fibroblasts (MRC-5) cells.
Conditions: MRC-5 cells (human fibroblasts)
# key: entry, value: pIC50
Here pIC50 is given on a logarithmic scale as minus log10 of the concentration in mol/L.

>>> meas_value("CC1CC2=C(CC1CNCCCN(C)C)C(C)(C)CCC2 (configuration not stated)")
5.38

Exam item: Name the recorded pIC50 for CCCCCn1c(=N)n(CC(O)COc2cccc(C)c2)c2ccccc21 (configuration not stated) .
Marked response: 4.81

Exam item: Another: CN(C)c1ccc(C(O)(c2ccc(N(C)C)cc2)c2ccc(N(C)C)cc2)cc1
Marked response: 6.45

Exam item: Another compound to look at: CCOc1ccc2nc(C)cc(Nc3ccc(Br)cc3)c2c1
Marked response: 5.50

These entries and their values trace back to ChEMBL document CHEMBL2028040.
